Reported Kd values are given for each entry in this list.
- Experimental target: T1, VRK1 (vaccinia-related kinase 1), recombinant (UniProt Q99986 1-396)
- T1 sequence: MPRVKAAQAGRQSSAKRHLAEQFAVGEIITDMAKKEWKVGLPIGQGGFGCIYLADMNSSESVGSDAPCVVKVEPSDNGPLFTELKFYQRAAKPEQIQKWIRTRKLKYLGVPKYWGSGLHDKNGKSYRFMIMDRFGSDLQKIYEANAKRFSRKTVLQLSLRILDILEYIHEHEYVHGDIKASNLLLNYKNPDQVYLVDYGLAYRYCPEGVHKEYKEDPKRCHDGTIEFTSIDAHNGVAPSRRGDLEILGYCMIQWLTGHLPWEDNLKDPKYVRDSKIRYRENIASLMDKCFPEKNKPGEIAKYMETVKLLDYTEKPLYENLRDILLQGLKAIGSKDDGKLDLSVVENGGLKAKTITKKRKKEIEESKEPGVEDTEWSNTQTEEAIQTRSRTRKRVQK
- Test method notes: ELONA; 1 mM Mg2+; 10 mM sodium phosphate, 0.15 M NaCl, pH 7.5, 1 mM MgCl2, 0.2% BSA; 37 C, 1 h; aptamers denatured at 95 C 10 min then ice 10 min; VRK1 coated on plate (20 or 200 ng/well)
- Experimental parameters: protein: recombinant; tags: 6xHis; label: digoxigenin (5' when made with primer F5); possible two G-quadruplexes (predicted)
Give just the numeric value; nM need not be written.

{"Binder": "apVRKF33 (V#F33) (ssDNA) DNA: ACGCTCGGATGCCACTACAGGTTGCGAGGTGGGGGGTGGGTAGGGTGGGAAGTGCCCTCATGGACGTGCTGGTGA", "Unit text": "nM", "Kd": 129}

Ask | Can you look up the measured Kd of apVRKF8 (V#F8) (ssDNA) DNA: ACGCTCGGATGCCACTACAGGGAGGGGGGGGGAAAGTAAGCGGGGGGTCGGCGGCCTCATGGACGTGCTGGTGA for me?
Reply | 45.8
